src = PubChem BioAssay (NCI)

# Tested on: SW-620 colon
# PROTOCOL_DESCRIPTION: NCI tumour cell line growth inhibition, 48 h
ASSAY_ENDPOINT: TGI (µM)
# value in µM; strip the unit string

Exercise: Give its TGI value. Item: "N#Cc1c(-c2ccc(Cl)cc2)c(C#N)c(=O)n(NS(=O)(=O)c2ccccc2)c1S"
Key: 69.9

Okay, next one:
Exercise: Give its TGI value. Item: CCN(CCNc1ccc(C)c2sc3cc(Cl)ccc3c(=O)c12)CC(C)O (stereo not given)
Key: 3.51

---

# System: SNB-19 CNS
# PROTOCOL_DESCRIPTION: NCI tumour cell line growth inhibition, 48 h
Listing of entries alongside the reported GI50.

Exercise: Give its GI50 value. Item: CCN(CCNc1ccc(C)c2sc3cc(Cl)ccc3c(=O)c12)CC(C)O (centres undefined)
Key: 1.65 µM

Continuing:
Exercise: Give its GI50 value. Item: "O=C1c2ccc3c4c5ccc(c24)C(=O)N1CCCOCCCCOCCCNCc1ccc(cc1)CNCCCOCCCCOCCCN(C3=O)C5=O"
Key: 0.991 µM

Exercise: Give its GI50 value. Item: CCc1cccc2c3c(sc12)C(c1ccc(Cl)cc1)C(C#N)=C(N)O3 (centres undefined)
Key: 0.499 µM

---

# Tested on: SN12C renal
# PROTOCOL_DESCRIPTION: NCI tumour cell line growth inhibition, 48 h
Where a SMILES comes first, the peptide text is derived from it. The star is where a group is joined. Cbz = O=C(OCc1ccccc1)*; Boc = CC(C)(C)OC(=O)*; Bn = c1ccc(C*)cc1
ASSAY_ENDPOINT: TGI

Take a look at these entries with their results.
Exercise: Give its TGI value. Item: "O=C(Cn1cc(F)c(=O)[nH]c1=O)C12CC3CC(CC(C3)C1)C2"
Key: > 100 µM

Exercise: Give its TGI value. Item: CC(C)(C)OC(=O)NC(Cc1ccc(OCc2ccccc2)cc1)C(=O)NC(CCCCNC(=O)OCc1ccccc1)C(=O)O (configuration not stated) (Boc-Tyr(Bn)-Lys(Cbz)-OH; configuration not given here)
Key: > 100 µM

Exercise: Give its TGI value. Item: "C=CN1C(=O)OC[C@@H]1c1ccccc1"
Key: > 100 µM

Continuing:
Exercise: Give its TGI value. Item: NC1CC(N)c2c(Br)sc(Br)c21 (configuration not stated)
Key: > 100 µM

Exercise: Give its TGI value. Item: "CN(C(=O)c1ccc(Cl)cc1)C(=S)N1CCN(c2ccccn2)CC1"
Key: > 100 µM

Exercise: Give its TGI value. Item: "FC(F)(F)C(C1=NC(C(F)(F)F)(C(F)(F)F)N=C(N2CCOCC2)O1)C(F)(F)F"
Key: 36.1 µM

---

Listing of entries alongside the reported TGI.
# Tested on: CAKI-1 renal
# PROTOCOL_DESCRIPTION: NCI tumour cell line growth inhibition, 48 h

Take a look at these entries with their results.
Exercise: Give its TGI value. Item: CCc1cccc2c3c(sc12)C(c1ccc(Cl)cc1)C(C#N)=C(N)O3 (stereo not given)
Key: 14 µM

Exercise: Give its TGI value. Item: CCOC(=O)c1cc(C2CCN(CC(C)CC)C2=S)c(-c2cc(C)no2)[nH]1 (stereo not given)
Key: > 100 µM

Exercise: Give its TGI value. Item: C=CCOC1=C(OCC=C)C(C2COC(C)(C)O2)OC1=O (stereo not given)
Key: 34.9 µM

Exercise: Give its TGI value. Item: CC(/C(=N/NC(=O)C(N)=O)c1c(Cl)ccc(Cl)c1O)C1(O)C(=O)Nc2ccccc21 (stereo not given)
Key: > 100 µM

Exercise: Give its TGI value. Item: "CCCCCCC#Cc1ccccc1C#CCO"
Key: 33.2 µM

Exercise: Give its TGI value. Item: "COc1cc(Cl)cc(N(O)C(C)=O)c1OCc1ccccc1"
Key: > 100 µM

Exercise: Give its TGI value. Item: CCN(CC)c1ccc(C2SCC(=O)N2c2ccc(NC(=O)c3ccc(N4C(=O)CSC4c4ccc(N(CC)CC)cc4)cc3)cc2)cc1 (stereo not given)
Key: > 100 µM

Exercise: Give its TGI value. Item: "CCCCn1cnnc1NS(=O)(=O)c1cc(C)c(Cl)cc1SCC(=O)O"
Key: > 10 µM

Continuing:
Exercise: Give its TGI value. Item: "c1ccc(-c2ccc(-c3cc4ccccc4[nH]3)cc2)cc1"
Key: > 100 µM

Exercise: Give its TGI value. Item: "CN(C)c1ccc(-c2cc(-c3ccc(Nc4nc(Nc5ccccc5)nc(Nc5ccc(Cl)cc5)n4)cc3)nc(N)n2)cc1"
Key: 7.76 µM
